This listing pairs compounds with measured pIC50.
- Assay system: hROMK (hKir1.1) (Homo sapiens)
- Experiment notes: Thallium Flux Assay (ROMK channel functional thallium flux, FLIPR-Tetra)
- Condition info: HEK293 cells stably expressing hROMK (hKir1.1); 30 min incubation with compound; HCl salt run where final product was an HCl salt
pIC50: −log10 of the molar value.
Readout name: pIC50

> print(dat)
                                    compound  readout.name  reported.value
 1  Cc1c([C@@H](O)CN2CCC(C(=O)Nc3nc(C4CC4)ns3)CC2)ccc2c1COC2=O         pIC50            6.52
 2  Cc1c([C@@H](O)CN2CC3C(C2)C3C(=O)Nc2cnsc2)ccc2c1COC2=O (stereo partly drawn)         pIC50            6.55
 3  Cc1c(CCN2CCC(C(=O)Nc3cc(C#N)ccc3F)CC2)ccc2c1COC2=O         pIC50            6.60
 4  Cc1nsc(NC(=O)C2C3CN(C[C@H](O)c4ccc5c(c4C)COC5=O)CC32)n1 (stereo partly drawn)         pIC50            6.46
 5  Cc1cc(NC(=O)C2(O)CCN(C[C@H](O)c3ccc4c(c3C)COC4=O)CC2)sn1         pIC50            6.66
 6  Cc1c([C@@H](O)CN2CCC(F)(C(=O)N3CCc4cnccc43)CC2)ccc2c1COC2=O         pIC50            6.70
 7  Cc1c([C@@H](O)CN2CCC(C(=O)Nc3ccns3)CC2)ccc2c1COC2=O         pIC50            7.40
 8  Cc1cc(NC(=O)C2CCN(C[C@H](O)c3ccc4c(c3C)COC4=O)CC2)sn1         pIC50            6.92
 9  Cc1nc(NC(=O)C2CCN(CCc3ccc4c(c3C)COC4=O)CC2)ccc1C#N         pIC50            7.00
10  Cc1cc(C#N)ccc1NC(=O)C1CCN(CCc2ccc3c(c2C)COC3=O)CC1         pIC50            7.00
11  N#Cc1cc(NC(=O)C2CCN(CCc3ccc4c(c3)COC4=O)CC2)ccc1F         pIC50            6.39
12  Cc1cc(NC(=O)C2C3CN(C[C@H](O)c4ccc5c(c4C)COC5=O)CC32)sn1 (stereo partly drawn)         pIC50            7.22
13  Cc1c([C@@H](O)CN2CCC(C(=O)Nc3ccc(-c4csnn4)cc3)CC2)ccc2c1COC2=O         pIC50            6.77
14  Cc1c(CCN2CCC(C(=O)Nc3ccc(C#N)c4ccccc34)CC2)ccc2c1COC2=O         pIC50            7.15
15  Cc1c([C@@H](O)CN2CC3C(C2)C3C(=O)Nc2ccc(C#N)cn2)ccc2c1COC2=O (stereo partly drawn)         pIC50            6.40
16  Cc1cc(N(C)C(=O)C2CCN(C[C@H](O)c3ccc4c(c3C)COC4=O)CC2)sn1         pIC50            7.70
17  Cc1c(C(O)CN2CCC(O)(C(=O)Nc3ccc(C#N)cn3)CC2)ccc2c1COC2=O (stereo in doubt)         pIC50            6.33
18  O=C1OCc2cc(CCN3CCC(C(=O)Nc4ccc5[nH]nnc5c4)CC3)ccc21         pIC50            6.36
19  Cc1c([C@@H](O)CN2CCC(O)(C(=O)Nc3ccns3)CC2)ccc2c1COC2=O         pIC50            6.96
20  Cc1nc(NC(=O)C2(F)CCN(C[C@H](O)c3ccc4c(c3C)COC4=O)CC2)ccc1C#N         pIC50            6.66
21  Cc1c([C@@H](O)CN2CC3C(C2)C3C(=O)N(C)c2ccns2)ccc2c1COC2=O (stereo partly drawn)         pIC50            6.85
22  Cc1c([C@@H](O)CN2CCC(C(=O)Nc3cncc(F)c3)CC2)ccc2c1COC2=O         pIC50            6.47
23  CCOc1cc(NC(=O)C2CCN(C[C@H](O)c3ccc4c(c3C)COC4=O)CC2)ccc1C#N         pIC50            6.74
24  Cc1c([C@@H](O)CN2CCC(C(=O)Nc3cccc(-n4cnnn4)c3)CC2)ccc2c1COC2=O         pIC50            7.05
25  COc1cc(NC(=O)C2CCN(C[C@H](O)c3ccc4c(c3C)COC4=O)CC2)ccc1C#N         pIC50            6.82
26  Cc1nsc(NC(=O)C2(O)CCN(C[C@H](O)c3ccc4c(c3C)COC4=O)CC2)n1         pIC50            6.38
27  Cc1c(CCN2CCC(C(=O)Nc3ccc4nonc4c3)CC2)ccc2c1COC2=O         pIC50            6.68
28  Cc1c(CCN2CCC(C(=O)Nc3ccc(C#N)cc3)CC2)ccc2c1COC2=O         pIC50            6.85
29  Cc1nsc(NC(=O)C2CCN(C[C@H](O)c3ccc4c(c3C)COC4=O)CC2)n1         pIC50            6.80
30  Cc1c([C@@H](O)CN2CCC(C(=O)Nc3ccncc3)CC2)ccc2c1COC2=O         pIC50            6.38
31  N#Cc1cc(F)c(NC(=O)C2CCN(CCc3ccc4c(c3)COC4=O)CC2)cc1F         pIC50            6.85
32  Cc1c([C@@H](O)CN2CCC(C(=O)Nc3cnoc3)CC2)ccc2c1COC2=O         pIC50            6.85
33  N#Cc1ccc(NC(=O)C2CCN(CCc3ccc4c(c3)COC4=O)CC2)c(OC(F)(F)F)c1         pIC50            6.74

---

- Assay system: hROMK (hKir1.1) (Homo sapiens, UniProt P48048)
- Sequence (P48048 1-391): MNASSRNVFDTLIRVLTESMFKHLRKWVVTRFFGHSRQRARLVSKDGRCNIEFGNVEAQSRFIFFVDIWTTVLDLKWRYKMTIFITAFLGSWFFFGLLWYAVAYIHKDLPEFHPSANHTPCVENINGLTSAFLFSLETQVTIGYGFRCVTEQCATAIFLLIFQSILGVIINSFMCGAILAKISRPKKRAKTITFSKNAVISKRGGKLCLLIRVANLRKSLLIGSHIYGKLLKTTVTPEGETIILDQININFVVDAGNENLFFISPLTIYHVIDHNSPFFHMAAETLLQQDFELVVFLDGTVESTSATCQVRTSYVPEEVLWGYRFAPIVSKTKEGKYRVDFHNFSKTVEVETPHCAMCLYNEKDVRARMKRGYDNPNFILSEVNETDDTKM
- Experiment notes: Thallium Flux Assay (ROMK channel functional thallium flux, FLIPR-Tetra)
- Condition info: HEK293 cells stably expressing hROMK (hKir1.1); 30 min incubation with compound; HCl salt run where final product was an HCl salt
Counter-ions that a name gives are not always drawn.
This listing pairs molecules with measured IC50.
Readout name: IC50 (nM)

> print(dat)
                                   molecule  reported.value
1  Cc1c([C@@H](O)CN2CCC(N)(C(=O)Nc3ccns3)CC2)ccc2c1COC2=O [Example 46, hydrochloride]              50
2  Cc1c([C@@H](O)CN2CC3C(C2)C3C(=O)Nc2ccc(-n3cnnn3)cn2)ccc2c1COC2=O (some centres unmarked) [Example 60]             470
3  Cc1c([C@@H](O)CN2CCC(F)(C(=O)Nc3ccc(C#N)cn3)CC2)ccc2c1COC2=O [Example 52]             260
4  COc1nsc(N(C)C(=O)C2CCN(C[C@H](O)c3ccc4c(c3C)COC4=O)CC2)n1 [Example 45]             250
5  N#Cc1cc(NC(=O)C2CCN(CCc3ccc4c(c3)COC4=O)CC2)ccc1Cl [Example 16]             260
6  Cc1c([C@@H](O)CN2CCC(C(=O)Nc3ccc(-n4cccn4)cc3)CC2)ccc2c1COC2=O [Example 23]              80
7  Cc1c([C@@H](O)CN2CCC(F)(C(=O)Nc3cnsc3)CC2)ccc2c1COC2=O [Example 50]             370
8  N#Cc1cc(NC(=O)C2CCN(CCc3ccc4c(c3)COC4=O)CC2)n(-c2ccc(F)cc2)c1 [Example 21]             410
